biological target: IRAK4 (Homo sapiens, UniProt Q9NWZ3); test: biochemical
endpoint_label: IC50 (nM)
Respond numerically; units are nM and should not be typed.

COCCCc1cn2cc(C(=O)Nc3cccc(OC)n3)c(OC(C)C)cc2n1 = 3.2
CC(C)Oc1c(C(=O)Nc2cccc(C(F)F)n2)cn2cc(C34COC(C)(C3)C4)nc2c1F = 1.7
COc1ccn2ncc(NC(=O)c3cn4cc(C56COC(C)(C5)C6)nc4cc3OC(C)C)c2n1 = 2.2
CC(C)Oc1cc2nc(C34CC(C3)C4)cn2cc1C(=O)Nc1cccc(C(F)F)n1 = 1.3
CC12CC(c3cn4cc(C(=O)Nc5cnc6cccnn56)c(OC5CCCC5)nc4n3)(CO1)C2 = 0.1

Entry COc1cnccc1NC(=O)c1cn2cc(C3CCOCC3)nc2cc1OC — recorded IC50 = 123

Entry CC(C)Oc1cc2nc([C@@]34CC[C@@](C)(C3)OC4)cn2cc1C(=O)Nc1ccn(C)n1 (single isomer, unassigned) — recorded IC50 = 2.3

Entry Cn1ccc(NC(=O)c2cn3cc([C@]45CC[C@](C)(C4)OC5)nc3nc2OC2CCCC2)n1 (single isomer, unassigned) — recorded IC50 = 3.7

Entry COc1cc2nc(C3CC34CCCCO4)cn2cc1C(=O)Nc1ccccn1 (stereo not drawn) — recorded IC50 = 151

====

Reported pIC50 values follow for various compounds
target: IRAK4 (Homo sapiens); test: biochemical
By convention, pIC50 is the negative base-10 log of a molar concentration.

COc1nc(C(=O)Nc2ccnn2C)cn2cc(C3CCOCC3)nc12 = 5.24
CC(C)Oc1c(C(=O)Nc2cccn(C)c2=O)cn2cc(C34COC(C)(C3)C4)nc2c1Cl = 6.80
CC12CC(c3cn4cc(C(=O)Nc5cccn(C(F)F)c5=O)c(OC5CCC5)cc4n3)(CO1)C2 = 9.70

Attention now turns to another entry.
Entry COc1cc2nc(C3CCOCC3)cn2cc1C(=O)Nc1ccccc1OC(C)C — recorded pIC50 = 7.42

====

Reported log10(IC50) values follow for various molecules
target: IRAK4 (Homo sapiens); test: biochemical; conditions: IRAK4 Biochemical Assay (1 mM ATP, 2 h) IC50 (μM), 1 mM ATP, 2 h, 100 pM IRAK4
Counter-ions that a name gives are not always drawn.
Kindly note that the scale is log10 and the underlying IC50 is in µM.

Known results for molecules:
O=C(Nc1cccc(C(F)F)n1)c1cc(OC(F)F)c2nc(C3CCOCC3)cn2c1 [Example 63, trifluoroacetate] = -2.11
COc1cc2nc(C34CC(C#N)(C3)C4)cn2cc1C(=O)Nc1cccc(C(F)(F)F)n1 [Example 37] = -1.60
CCOc1cc2nc(C3CCOCC3)cn2cc1C(=O)Nc1cccc(C(F)CF)n1 (stereo not shown) [Example 392, hydrochloride] = -2.74
CC(C)Oc1nc2nc(C34COC(C)(C3)C4)cn2cc1C(=O)Nc1cnn2cc(F)cnc12 [Example 398] = -3.70
CN1CCC(Oc2cc3nc(C4CC4)cn3cc2C(=O)Nc2cccc(C(F)F)n2)C1=O (stereo not shown) [Example 469] = -1.39
COc1cc2nc(C3CCOCC3)cn2cc1C(=O)Nc1cc(F)cn(C)c1=O [Example 212, trifluoroacetate] = -1.80
COc1cccc(NC(=O)c2cn3cc(C45COC(CF)(C4)C5)nc3cc2OC)n1 [Example 7] = -1.78
COc1cccc(NC(=O)c2cn3cc(C4C5CCOCC54)nc3cc2OC)n1 (stereo not shown) [Example 25] = -2.51

Entry COc1cccc(NC(=O)c2cn3cc(C45CCC(C)(C4)OC5)nc3cc2OC)n1 (stereo not shown) [Example 27] — recorded log10(IC50) = -1.70

Entry COc1cc2nc(C34CC(OC)(C3)C4)cn2cc1C(=O)Nc1ccccn1 [Example 2] — recorded log10(IC50) = -1.23

Entry COc1nc(C(=O)Nc2ccccn2)cn2cc(C3CCOCC3)nc12 [Example 78] — recorded log10(IC50) = -1.32

Entry CC(C)Oc1nc2nc(C34COC(C)(C3)C4)cn2cc1C(=O)Nc1csc2nccnc12 [Example 380, trifluoroacetate] — recorded log10(IC50) = -3.70

Entry Cc1cnc2c(NC(=O)c3cn4cc(C5CC5)nc4cc3OC(C)C)cnn2c1 [Example 280, trifluoroacetate] — recorded log10(IC50) = -2.72

====

target: UniProt Q9NWZ3; assay: biochemical
endpoint_label: IC50 (nM)
Respond numerically; units are nM and should not be typed.

COc1ncccc1NC(=O)c1cn2cc(C34COC(CF)(C3)C4)nc2c(OC(C)C)n1 = 0.8
CC(C)(C)c1cn2cc(C(=O)Nc3cccc(C(F)F)n3)c(OC3COC4(CC4)C3)cc2n1 (stereo not drawn) = 8.3

Attention now turns to another entry.
Entry C[C@@]12CC[C@@](c3cn4cc(C(=O)Nc5cccc(C(F)F)n5)cc(OC(F)F)c4n3)(CO1)C2 (single isomer, unassigned) — recorded IC50 = 15.4

====

Molecular target: IRAK4 (Homo sapiens)
Sequence (Q9NWZ3 1-460): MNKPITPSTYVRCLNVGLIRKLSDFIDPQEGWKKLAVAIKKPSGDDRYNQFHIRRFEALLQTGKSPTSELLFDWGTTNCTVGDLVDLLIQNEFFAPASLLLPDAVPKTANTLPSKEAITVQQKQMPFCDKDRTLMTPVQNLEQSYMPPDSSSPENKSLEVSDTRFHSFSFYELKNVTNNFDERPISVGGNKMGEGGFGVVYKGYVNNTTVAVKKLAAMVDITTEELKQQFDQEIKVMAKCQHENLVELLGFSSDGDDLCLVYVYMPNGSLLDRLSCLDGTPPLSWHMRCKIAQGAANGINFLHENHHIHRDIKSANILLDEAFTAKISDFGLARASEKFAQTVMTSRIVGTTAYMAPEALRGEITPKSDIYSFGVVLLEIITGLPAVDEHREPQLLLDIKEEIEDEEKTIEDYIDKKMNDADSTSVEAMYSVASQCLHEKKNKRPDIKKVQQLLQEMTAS
Assay: biochemical
endpoint_label: IC50
Answer shape: numeric part, then the unit.

O=C(Nc1cccn(C(F)F)c1=O)c1cn2cc(C3CC3)nc2cc1OC1CCCC1 = 1.9 nM

Entry COc1cc2nc(CC3CCOC3)cn2cc1C(=O)Nc1cccc(C(F)(F)F)n1 (centres unmarked) — recorded IC50 = 14 nM

Entry CC(C)Oc1cc2nc(C(F)(F)F)cn2cc1C(=O)Nc1cccc(C(F)F)n1 — recorded IC50 = 5.6 nM

====

Reported IC50 values follow for various compounds
target: IRAK4 (Homo sapiens); experiment: biochemical; settings: IRAK4 Biochemical Assay (1 mM ATP, 2 h) IC50 (μM), 1 mM ATP, 2 h, 100 pM IRAK4
Respond numerically; units are µM and should not be typed.

Known results for compounds:
CC(C)Oc1cc2nc(C3CCOCC3)cn2cc1C(=O)Nc1cccc(C(F)F)n1 = 0.0003
CC12CC(c3cn4cc(C(=O)Nc5cccn(C(F)F)c5=O)c(OCC5CC(F)(F)C5)cc4n3)(CO1)C2 = 0.0013
COc1cccc(NC(=O)c2cn3cc(CC4CCOCC4)nc3cc2OC)n1 = 0.0293

Entry CC(C)Oc1cc2nc(C34COC(C)(C3)C4)cn2cc1C(=O)Nc1cncn(C)c1=O [Example 261, 2,2,2-trifluoroacetate] — recorded IC50 = 0.0047

Entry CC(C)Oc1cc2nc(C34COC(CF)(C3)C4)cn2cc1C(=O)Nc1cccc(C(F)F)n1 — recorded IC50 = 0.0002

Entry COc1cccc(NC(=O)c2cn3cc(C45CC(C)(CO4)C5)nc3cc2OC)n1 — recorded IC50 = 0.124

====

target: UniProt Q9NWZ3; assay: biochemical
Rule for this label: label 1 means IC50 is less than 2 nM; label 0 means IC50 is at least 2 nM.

Solved cases below.
CCOc1cc2nc(C[C@@H]3CCOC3)cn2cc1C(=O)Nc1cccc(C(F)F)n1 = label 1
CC(C)Oc1cc2nc(C34COC(C3)C4)cn2cc1C(=O)Nc1cccn(C(F)F)c1=O = label 1
Cc1cc(-n2ccc(NC(=O)c3cn4cc(C56CCC(C)(C5)OC6)nc4cc3OC3CCC3)n2)ccn1 (stereo not shown) = label 1
CC(C)Oc1cc2nc(C34CCC(C)(C3)OC4)cn2cc1C(=O)Nc1cccc(F)c1F (stereo not shown) = label 1
Cn1ccc(NC(=O)c2cn3cc(C45COC(C)(C4)C5)nc3cc2OC2CCCC2)n1 = label 1
CCOc1nc(C(=O)Nc2cccnc2OC)cn2cc(C3CCCOC3)nc12 (stereo not shown) = label 0

**Query** Would you kindly verify if IC50 of COc1cc2nc(C3CCOCC3)cn2cc1C(=O)Nc1cccnc1OCC(F)F is strictly less than 2 nM?
**Result** label 0

**Query** Would you kindly verify if IC50 of Cc1cnc2c(NC(=O)c3cn4cc(C56COC(C)(C5)C6)nc4c(F)c3OC3CCC3)cnn2c1 is strictly less than 2 nM?
**Result** label 1

**Query** Would you kindly verify if IC50 of CC12CC(c3cn4cc(C(=O)Nc5cccn(C(F)F)c5=O)c(OC5CCOC5)cc4n3)(CO1)C2 (stereo not shown) is strictly less than 2 nM?
**Result** label 1

**Query** Would you kindly verify if IC50 of Cc1cccc(NC(=O)c2cn3cc(C45COC(C)(C4)C5)nc3nc2OC(C)C)n1 is strictly less than 2 nM?
**Result** label 1

**Query** Would you kindly verify if IC50 of CC(C)Oc1cc2nc(C34CCC(C)(C3)OC4)cn2cc1C(=O)Nc1cccc(C(F)F)n1 (stereo not shown) is strictly less than 2 nM?
**Result** label 1

**Query** Would you kindly verify if IC50 of CCOc1nc(C(=O)Nc2cccnc2OC)cn2cc([C@]34CC[C@](C)(C3)OC4)nc12 (single isomer, unassigned) is strictly less than 2 nM?
**Result** label 1

**Query** Would you kindly verify if IC50 of CC(C)Oc1cc2nc(C(F)F)cn2cc1C(=O)Nc1cccc(C(F)F)n1 is strictly less than 2 nM?
**Result** label 0

**Query** Would you kindly verify if IC50 of CCOc1cc2nc([C@@H]3CC3(F)F)cn2cc1C(=O)Nc1cccc(OC)n1 (single isomer, unassigned) is strictly less than 2 nM?
**Result** label 0
